List of MIC values.
# System: Aspergillus fumigatus AF293
# test summary: MIC (YAG medium)
# Type: cell-based
# experimental parameters: Aspergillus fumigatus; YAG medium; MIC banded into grades; AF293; read-out: MIC A. fumigatus (grade)

- compound: "CS(=O)(=O)NC(=O)c1ccc(NC(=O)C(=O)c2c(-c3ccccc3)cc3ccccn23)cc1 [Example 5]"
  MIC: "> 10 µg/mL"
- compound: "O=C(Nc1ccccc1F)C(=O)c1c(-c2ccccc2)cc2ccc3ccccc3n12 [Example 4]"
  MIC: "> 10 µg/mL"
- compound: "O=C(Nc1ccc(C(=O)OC2CCOCC2)c(O)c1)C(=O)c1c(-c2ccccc2)cc2ccccn12 [Example 11]"
  MIC: "< 1 µg/mL"
- compound: "CC(C)c1nc(C(C)(C)c2cccc(NC(=O)C(=O)c3c(-c4ccccc4)cc4ccccn34)c2)cn1C [Example 14]"
  MIC: "> 10 µg/mL"
- compound: "Cc1cc(OCCOc2ccc(NC(=O)C(=O)c3c(-c4ccccc4)cc4ccccn34)cc2)cc(C)n1 [Example 71]"
  MIC: "< 1 µg/mL"
- compound: "O=C(Nc1ccc(N2CCN(c3cccc(N(CCO)CCO)n3)CC2)cc1)C(=O)c1c(-c2ccccc2)cc2ccccn12 [Example 86]"
  MIC: "< 1 µg/mL"
- compound: "CN1CCN(c2ccc(NC(=O)C(=O)c3c(-c4ccccc4)cc4ccccn34)cc2-c2ncco2)CC1 [Example 19]"
  MIC: "> 10 µg/mL"

* * *

# Test system: Aspergillus terreus AT4
# test summary: MIC (YAG medium)
# Type: cell-based
# experimental parameters: Aspergillus terreus; YAG medium; MIC banded into grades; AT4; read-out: MIC A. terreus (grade)
# Procedure: Between 1 and 5 mgs of compound were accurately weighed out into a sterile Eppendorf tube. The compound was dissolved in DMSO to give a solution containing 5 mg/mL. Tubes were stored at −20° C. until required. […] This produced MIC plates with a drug range 50-0.05 mg/L and organism inocula of 1-2×10^4 cfu/mL for Aspergillus spp. and other filamentous fungi and 1-2×10^3 cfu/mL for yeasts. […] Growth was assessed by monitoring the optical density at 485 nm for each well. […]
List of MIC values.

- compound: "O=C(Nc1cnccc1N1CCN(Cc2cccs2)CC1)C(=O)c1c(-c2ccccc2)cc2ccccn12 [Example 37]"
  MIC: "< 1 µg/mL"
- compound: "Cc1ccc(N2CCN(c3ccc(NC(=O)C(=O)c4c(-c5ccccc5)cc5ccccn45)cc3)CC2)nc1 [Example 74]"
  MIC: "< 1 µg/mL"
- compound: "O=C(Nc1ccc(N2CCC(N3CCOCC3)CC2)cc1)C(=O)c1c(-c2ccccc2Cl)cc2ccccn12 [Example 26]"
  MIC: "1 to 10 µg/mL"
- compound: "O=C(Nc1ccc(N2CCN(c3cccc(NCCO)n3)CC2)cc1)C(=O)c1c(-c2ccccc2)cc2ccccn12 [Example 87]"
  MIC: "1 to 10 µg/mL"
- compound: "Cc1cc(C)nc(N2CCN(c3ccc(NC(=O)C(=O)c4c(C5CCN(C)CC5)cc5ccccn45)cc3)CC2)c1 [Example 63]"
  MIC: "> 10 µg/mL"
- compound: "COCc1cc(NC(=O)C(=O)c2c(-c3ccccc3)cc3ccccn23)ccc1N1CCN(c2cc(C)cc(C)n2)CC1 [Example 81]"
  MIC: "< 1 µg/mL"
- compound: "C=C1CCN(c2ccc(NC(=O)C(=O)c3c(-c4cccnc4C)cc4ccccn34)cc2)CC1 [Example 46]"
  MIC: "< 1 µg/mL"
- compound: "CC(C)c1nc(C(C)(C)c2ccc(NC(=O)C(=O)c3c(-c4ccccc4)cc4ccccn34)cc2)cn1C [Example 16]"
  MIC: "< 1 µg/mL"
- compound: "CON=C1CCN(c2ccc(NC(=O)C(=O)c3c(-c4ccccc4)cc4ccccn34)cc2)CC1 [Example 2]"
  MIC: "< 1 µg/mL"
- compound: "Cc1cc(C)nc(NCCN(C)c2ccc(NC(=O)C(=O)c3c(-c4ccccc4)cc4ccccn34)cc2)c1 [Example 69]"
  MIC: "< 1 µg/mL"
- compound: "CCc1cccc(N2CCN(c3ccc(NC(=O)C(=O)c4c(-c5ccccc5)cc5ccccn45)cc3)CC2)n1 [Example 73]"
  MIC: "< 1 µg/mL"
- compound: "Cc1ccnc(N2CCN(c3ccc(NC(=O)C(=O)c4c(-c5ccccc5)cc5ccccn45)cc3)CC2)c1 [Example 49]"
  MIC: "< 1 µg/mL"
- compound: "Cc1cc(C)nc(N(C)CCN(C)c2ccc(NC(=O)C(=O)c3c(-c4ccccc4)cc4ccccn34)cc2)c1 [Example 55]"
  MIC: "< 1 µg/mL"
- compound: "O=C(Nc1ccc(C(=O)OC2CCOCC2)c(O)c1)C(=O)c1c(-c2ccccc2)cc2ccccn12 [Example 11]"
  MIC: "< 1 µg/mL"
- compound: "Cc1cc(C)nc(CNc2ccc(NC(=O)C(=O)c3c(-c4ccccc4)cc4ccccn34)cc2)c1 [Example 91]"
  MIC: "< 1 µg/mL"
